Data origin, for the record: patent US20210355194A1

# target-of-assay: T1, Acro SARS-CoV-2 (COVID-19) S1 protein (SARS-CoV-2, UniProt P0DTC2 16-685)
# T1 construct: also called SARS-CoV-2 S1
# assay-protocol: SPR
readout-kind: Kd (nM)
One number for each entry, in nM.

>>> assay_result("variant 5-52 (Fc fusion) VHH: EVQLVESGGGLVQPGGSLRLSCAASGEKFSDHWMGWFRQAPGKEREFVATITFSGARTAYADSVKGRFTISADNSKNTAYLQMNSLKPEDTAVYYCAALIKPSSTDRIFEEWGQGTLVTVSS")
99
>>> assay_result("variant 5-27 (Fc fusion) VHH: EVQLVESGGGLVQPGGSLRLSCAASGRANSINWMGWFRQAPGKEREFVATITPGGNTNYADSVKGRFTISADNSKNTAYLQMNSLKPEDTAVYYCAAAAGSTWYGTLYEYDWGQGTLVTVSS")
92.9
>>> assay_result("variant 5-20 (Fc fusion, VHH-Fc) VHH: EVQLVESGGGLVQPGGSLRLSCAASGRTIVPYTMGWFRQAPGKERELVAAISPSAFTEYADSVKGRFTISADNSKNTAYLQMNSLKPEDTAVYYCAARRWGYDWGQGTLVTVSS")
14.3

Kindly consider the entry below.
Query: Given the binder variant 5-3 (Fc fusion) VHH: EVQLVESGGGLVQPGGSLRLSCAASGSIFSIDVMGWFRQAPGKEREFVAGISWSGDSTLYADSVKGRFTISADNSKNTAYLQMNSLKPEDTAVYYCAAFDGYTGSDWGQGTLVTVSS , what is its reported Kd?
Reply: 64.6
